The origin of these recorded values is ChEMBL document CHEMBL4190250.

Each entry below lists one item and its recorded Papp at 2.5 h value.
# procedure details: Effective permeability of the compound after 2.5 hrs at 25 degC by PAMPA assay
# Type: ADME
# details: read-out: permeability
Respond numerically; units are ×10⁻⁶ cm/s and should not be typed.

Below, 5 compounds whose answers are already recorded.
structure notation: O=C1Nc2ccc(Br)cc2C1=NN1CCCCC1
result units: ×10⁻⁶ cm/s
recorded number: 9.4
--
structure notation: COc1ccc(/N=C2/C(=O)Nc3ccccc32)cc1
result units: ×10⁻⁶ cm/s
recorded number: 5.9
--
structure notation: O=C1Nc2ccc(Cl)cc2C1=NN1CCOCC1
result units: ×10⁻⁶ cm/s
recorded number: 12.3
--
structure notation: O=C1Nc2ccc(I)cc2C1=NN1CCOCC1
result units: ×10⁻⁶ cm/s
recorded number: 11.3
--
structure notation: O=C1Nc2ccc(F)cc2C1=NN1CCOCC1
result units: ×10⁻⁶ cm/s
recorded number: 8.4

Reported Papp at 2.5 h for "O=C1Nc2ccccc2C1=Nc1ccccc1F" : what is it?
10.6

Moving on to the next compound: "O=C1Nc2ccccc2C1=NN(Cc1ccccc1)c1ccccc1"
8.9

What do we get for "COc1ccc2c(c1)/C(=N\N(c1ccccc1)c1ccccc1)C(=O)N2" ?
16.4
